- System: SF-295 CNS
- ASSAY EXPLANATION: NCI tumour cell line growth inhibition, 48 h
MEASURED PARAMETER: TGI (µM)
Your answer should be a plain number; it is taken to be in µM.

Per the record, COc1cc(O)c2c(=O)cc(C3(O)C=CC(=O)C=C3)oc2c1 has TGI of 2.09

Per the record, COC(=O)[C@@]12OC[C@]34C([C@@H](O)C1O)[C@@]1(C)CC(=O)C(OC(=O)/C=C(/c5ccccc5)C(F)(F)F)=C(C)C1C[C@H]3OC(=O)[C@H](O)[C@H]42 (stereo partly drawn) has TGI of 28.1

Per the record, Cn1c2c(c3ccccc31)CCN(CCCCN1CCN(c3cccc(Cl)c3)CC1)C2=O has TGI of 34

Per the record, Cc1ccc(/C=C/C(=N/NC(=O)N/N=C(/C=C/c2ccc(C)cc2)C(C)(C)CN2CCCCC2)C(C)(C)CN2CCCCC2)cc1 has TGI of 3.13
